The measurements presented in this section are drawn from patent US9783537B2.

Exercise: state measured GI50 for each of the compounds provided.
# Test system: OVCAR-4
# TEST NAME: SRB 48 h growth assay, Ovarian OVCAR-4
# Format: cell-based, human
# MEASUREMENT SETUP: Homo sapiens, OVCAR-4, Ovarian, read-out: Growth Inhibition GI50
Answers are plain numbers, in µM.

Example compounds with recorded GI50:
• C#Cc1ccc(-n2c(/C=C/c3ccc(C(F)(F)F)cc3)nc3ncccc3c2=O)cc1 = 1.58
• C#Cc1ccc(-n2c(/C=C/c3ccc4ccccc4c3)nc3ncccc3c2=O)cc1 = 1.95
• C#Cc1ccc(-n2c(/C=C/c3cc(OC)c(OC)c(OC)c3)nc3ncccc3c2=O)cc1 = 12
• C#Cc1ccc(-n2c(/C=C/c3ccc(Cl)c(F)c3)nc3ncccc3c2=O)cc1 = 0.48
• C#Cc1ccc(-n2c(/C=C/c3ccc(O)cc3)nc3ncccc3c2=O)cc1 = 22.8

Now let's try a different one.
[Q] Query: GI50; subject: `C#Cc1ccc(-n2c(/C=C/c3ccc4ccccc4n3)nc3ncccc3c2=O)cc1`
[A] 0.33

* * *

Exercise: state measured Log10 TGI50 for each of the molecules provided.
# Tested on: HT-29
# TEST NAME: SRB 48 h growth assay, Colon HT-29
# Format: cell-based, human
# MEASUREMENT SETUP: HT-29, Colon
Numbers only.

Example molecules with recorded Log10 TGI50:
- C#Cc1ccc(-n2c(/C=C/c3cc(OC)c(OC)c(OC)c3)nc3ncccc3c2=O)cc1: −4.82
- C#Cc1ccc(-n2c(/C=C/c3ccc(C(F)(F)F)cc3)nc3ncccc3c2=O)cc1: −5.40

Now let's try a different one.
[Q] Query: Log10 TGI50; subject: `C#Cc1ccc(-n2c(/C=C/c3ccc4ccccc4n3)nc3ncccc3c2=O)cc1`
[A] −5.96

* * *

# Tested on: A549/ATCC
# TEST NAME: SRB 48 h growth assay, Non-small Cell Lung A549/ATCC
# Type: cell-based, human
# MEASUREMENT SETUP: Homo sapiens, read-out: Log10 GI50 (converted)
REPORTED PROPERTY: GI50 (µM)
One number for each entry, in µM.

• C#Cc1ccc(-n2c(/C=C/c3ccc4ccccc4n3)nc3ncccc3c2=O)cc1 [4t] = 0.355

// for each compound below, give its GI50
1. C#Cc1ccc(-n2c(/C=C/c3ccc(C(F)(F)F)cc3)nc3ncccc3c2=O)cc1 [4c]
2. C#Cc1ccc(-n2c(/C=C/c3ccc4ccccc4c3)nc3ncccc3c2=O)cc1 [4s]
3. C#Cc1ccc(-n2c(/C=C/c3ccc(O)cc3)nc3ncccc3c2=O)cc1 [4b]

[A]
1. 1.82
2. 2.75
3. 4.79

[Q] Give the reported GI50 for C#Cc1ccc(-n2c(/C=C/c3cc(OC)c(OC)c(OC)c3)nc3ncccc3c2=O)cc1 [4q] (system: A549/ATCC).
[A] 5.62

* * *

# Test system: HS578T
# TEST NAME: SRB 48 h growth assay, Breast HS578T
# Format: cell-based, human
# MEASUREMENT SETUP: Homo sapiens, Hs-578T, read-out: Growth Inhibition GI50
Exercise: state measured GI50 for each of the compounds provided.
Numbers only, in µM.

Example compounds with recorded GI50:
- C#Cc1ccc(-n2c(/C=C/c3ccc(Cl)c(F)c3)nc3ncccc3c2=O)cc1: 0.41
- C#Cc1ccc(-n2c(/C=C/c3ccc(O)cc3)nc3ncccc3c2=O)cc1: 3.24
- C#Cc1ccc(-n2c(/C=C/c3ccc4ccccc4c3)nc3ncccc3c2=O)cc1: 7.62

// for each compound below, give its GI50
1. C#Cc1ccc(-n2c(/C=C/c3ccc(C(F)(F)F)cc3)nc3ncccc3c2=O)cc1
2. C#Cc1ccc(-n2c(/C=C/c3ccc4ccccc4n3)nc3ncccc3c2=O)cc1
3. C#Cc1ccc(-n2c(/C=C/c3cc(OC)c(OC)c(OC)c3)nc3ncccc3c2=O)cc1

[A]
1: 3.46; 2: 0.24; 3: 3.67

* * *

Exercise: state measured CC50 for each of the molecules provided.
# System: MDA-MB-468
# TEST NAME: SRB 48 h growth assay, Breast MDA-MB-468
# Type: cell-based, human
# MEASUREMENT SETUP: Homo sapiens, MDA-MB-468, Breast, read-out: Log10 LC50 (converted)
Answers are plain numbers, in µM.

Example molecules with recorded CC50:
* C#Cc1ccc(-n2c(/C=C/c3ccc(C(F)(F)F)cc3)nc3ncccc3c2=O)cc1 | 8.71
* C#Cc1ccc(-n2c(/C=C/c3ccc4ccccc4c3)nc3ncccc3c2=O)cc1 | 7.76

[Q] Query: CC50; subject: `C#Cc1ccc(-n2c(/C=C/c3ccc4ccccc4n3)nc3ncccc3c2=O)cc1`
[A] 3.47

* * *

# Test system: MDA-MB-435
# TEST NAME: SRB 48 h growth assay, Melanoma MDA-MB-435
# Assay type: cell-based, human
# MEASUREMENT SETUP: Homo sapiens, MDA-MB-435, Melanoma, read-out: Log10 GI50 (converted)
REPORTED PROPERTY: GI50 (nM)
Give bare numbers, in nM.

* C#Cc1ccc(-n2c(/C=C/c3ccc(Cl)c(F)c3)nc3ncccc3c2=O)cc1 [4g] | 195
* C#Cc1ccc(-n2c(/C=C/c3ccc(O)cc3)nc3ncccc3c2=O)cc1 [4b] | 1580
* C#Cc1ccc(-n2c(/C=C/c3ccc4ccccc4n3)nc3ncccc3c2=O)cc1 [4t] | 195
* C#Cc1ccc(-n2c(/C=C/c3ccc(C(F)(F)F)cc3)nc3ncccc3c2=O)cc1 [4c] | 2290
* C#Cc1ccc(-n2c(/C=C/c3cc(OC)c(OC)c(OC)c3)nc3ncccc3c2=O)cc1 [4q] | 2000

Now let's try a different one.
[Q] Give the reported GI50 for C#Cc1ccc(-n2c(/C=C/c3ccc4ccccc4c3)nc3ncccc3c2=O)cc1 [4s] (system: MDA-MB-435).
[A] 2040

* * *

# Test system: MOLT-4
# TEST NAME: SRB 48 h growth assay, Leukemia MOLT-4
# Format: cell-based, human
# MEASUREMENT SETUP: MOLT-4, Leukemia
REPORTED PROPERTY: Log10 TGI50

// for each compound below, give its Log10 TGI50
1. C#Cc1ccc(-n2c(/C=C/c3ccc4ccccc4n3)nc3ncccc3c2=O)cc1
2. C#Cc1ccc(-n2c(/C=C/c3ccc(C(F)(F)F)cc3)nc3ncccc3c2=O)cc1
3. C#Cc1ccc(-n2c(/C=C/c3ccc4ccccc4c3)nc3ncccc3c2=O)cc1
4. C#Cc1ccc(-n2c(/C=C/c3ccc(Cl)c(F)c3)nc3ncccc3c2=O)cc1
5. C#Cc1ccc(-n2c(/C=C/c3ccc(O)cc3)nc3ncccc3c2=O)cc1

[A]
1: >−4.00; 2: −5.06; 3: >−4.00; 4: >−4.00; 5: >−4.00

* * *

# Tested on: IGROV1
# TEST NAME: SRB 48 h growth assay, Ovarian IGROV1
# Assay type: cell-based, human
# MEASUREMENT SETUP: Homo sapiens, IGROV-1, read-out: Log10 LC50 (converted)
Exercise: state measured CC50 for each of the compounds provided.

Example compounds with recorded CC50:
- C#Cc1ccc(-n2c(/C=C/c3ccc4ccccc4c3)nc3ncccc3c2=O)cc1: > 100 µM
- C#Cc1ccc(-n2c(/C=C/c3ccc(O)cc3)nc3ncccc3c2=O)cc1: > 100 µM

Now let's try a different one.
[Q] Query: CC50; subject: `C#Cc1ccc(-n2c(/C=C/c3cc(OC)c(OC)c(OC)c3)nc3ncccc3c2=O)cc1`
[A] > 100 µM

* * *

# System: MDA-MB-231/ATCC
# TEST NAME: SRB 48 h growth assay, Breast MDA-MB-231/ATCC
# Format: cell-based, human
Exercise: state measured Log10 TGI50 for each of the molecules provided.

Example molecules with recorded Log10 TGI50:
• C#Cc1ccc(-n2c(/C=C/c3ccc4ccccc4c3)nc3ncccc3c2=O)cc1 = >−4.00
• C#Cc1ccc(-n2c(/C=C/c3ccc(O)cc3)nc3ncccc3c2=O)cc1 = >−4.00

[Q] Query: Log10 TGI50; subject: `C#Cc1ccc(-n2c(/C=C/c3cc(OC)c(OC)c(OC)c3)nc3ncccc3c2=O)cc1`
[A] >−4.00

* * *

# System: HS578T
# TEST NAME: SRB 48 h growth assay, Breast HS578T
# Format: cell-based, human
REPORTED PROPERTY: Log10 TGI50

- C#Cc1ccc(-n2c(/C=C/c3ccc(C(F)(F)F)cc3)nc3ncccc3c2=O)cc1: >−4.00
- C#Cc1ccc(-n2c(/C=C/c3ccc4ccccc4c3)nc3ncccc3c2=O)cc1: >−4.00

Now let's try a different one.
[Q] Give the reported Log10 TGI50 for `C#Cc1ccc(-n2c(/C=C/c3ccc(Cl)c(F)c3)nc3ncccc3c2=O)cc1` (system: HS578T).
[A] >−4.00
